Listing: pIC50 of selected compounds
Tested on: TGBC1TKB;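 further: growth inhibition of TGBC1TKB cells, read out by a cell viability assay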
Experiment: cells
Type: functional, cell-based, Homo sapiens
Conditions: Homo sapiens, TGBC1TKB
Description: SANGER: Inhibition of human TGBC1TKB cell growth in a cell viability assay.
pIC50: −log10 of the molar value.

The reported pIC50 of the compound CNC(=O)c1cc(Oc2ccc(NC(=O)Nc3ccc(Cl)c(C(F)(F)F)c3)cc2)ccn1 was < 5.40

The reported pIC50 of the compound C[C@]1(O)C[C@@H](c2nc(-c3ccc4ccc(-c5ccccc5)nc4c3)c3c(N)nccn32)C1 was < 5.59

The reported pIC50 of the compound COc1ccc(-c2ccc3c(N4CCOC[C@@H]4C)nc(N4CCOC[C@@H]4C)nc3n2)cc1CO was 5.88

New cases:
The reported pIC50 of the compound CN(Cc1cnc2nc(N)nc(N)c2n1)c1ccc(C(=O)N[C@@H](CCC(=O)O)C(=O)O)cc1 [METHOTREXATE] was < 6.70

The reported pIC50 of the compound CO[C@H]1C[C@@H]2CC[C@@H](C)[C@@](O)(O2)C(=O)C(=O)N2CCCC[C@H]2C(=O)O[C@H]([C@H](C)C[C@@H]2CC[C@@H](O)[C@H](OC)C2)CC(=O)[C@H](C)/C=C(\C)[C@@H](O)[C@@H](OC)C(=O)[C@H](C)C[C@H](C)/C=C/C=C/C=C/1C was 8.57

The reported pIC50 of the compound C=C1C(=O)O[C@@H]2C3O[C@]3(C)CC/C=C(\C)CC[C@@H]12 (stereo partly specified) was < 5.30

====

System: SK-LMS-1;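 further: growth inhibition of human SK-LMS-1 cells, read out with a cell viability assay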
Assay: cells
Format: functional, cell-based, Homo sapiens
Conditions: Homo sapiens, SK-LMS-1
Description: SANGER: Inhibition of human SK-LMS-1 cell growth in a cell viability assay.
pIC50: −log10 of the molar value.
Listing: pIC50 of selected molecules

The reported pIC50 of the molecule C=CCNC1=C2C[C@@H](C)C[C@H](OC)[C@H](O)[C@@H](C)/C=C(\C)[C@H](OC(N)=O)[C@@H](OC)/C=C\C=C(/C)C(=O)NC(=CC1=O)C2=O [TANESPIMYCIN] was < 6.00

The reported pIC50 of the molecule Cc1cc(Nc2cc(N3CCN(C)CC3)nc(Sc3ccc(NC(=O)C4CC4)cc3)n2)n[nH]1 [TOZASERTIB] was 5.91

New cases:
The reported pIC50 of the molecule O=c1cc(-c2cccc3c2Sc2ccccc2S3)oc(N2CCOCC2)c1 [KU-55933] was < 5.00

The reported pIC50 of the molecule CCC(=O)N1CCN(c2ccc(-n3c(=O)ccc4cnc5ccc(-c6cnc7ccccc7c6)cc5c43)cc2C(F)(F)F)CC1 [TORIN1] was 7.85

The reported pIC50 of the molecule Cc1cnc(-c2cnc(NCCNc3ccc(C#N)cn3)nc2-c2ccc(Cl)cc2Cl)[nH]1 [LADUVIGLUSIB] was < 5.59

The reported pIC50 of the molecule C=C1C(=O)O[C@@H]2C3O[C@]3(C)CC/C=C(\C)CC[C@@H]12 (stereo partly drawn) was < 5.30

The reported pIC50 of the molecule CC(=O)O[C@@H]1[C@@H](OC(C)=O)[C@@H](O)[C@H](Oc2c(-c3ccc(O)cc3)oc3cc(O)cc(O)c3c2=O)O[C@H]1C was < 5.00

The reported pIC50 of the molecule CN(c1ncccc1CNc1nc(Nc2ccc3c(c2)CC(=O)N3)ncc1C(F)(F)F)S(C)(=O)=O [PF-00562271] was < 5.59

Provenance of the data: ChEMBL document CHEMBL1201861
